ASSAY INFO: Plasma concentration versus time of Compound I and metabolite Compound III in patients dosed QD or BID with Form B of Compound II plus fulvestrant
Assay type: in vivo, human
MEASUREMENT CONDITIONS: human, plasma, oral, 650 mg, Cohort 5, 650 mg QD of Form B, Day 22; read-out: Trough Compound I Concentration, Min
REPORTED PROPERTY: concentration at 22 day
Write the figure, then the unit, nothing else.

Data request: Value lookup for concentration at 22 day; key = CC(C)N1CCN(c2ccc(Nc3ncc4cc5n(c4n3)C3(CCCCC3)CNC5=O)nc2)CC1 [Compound I]
Data returned: 23.3 ng/mL

---

ASSAY INFO: Noncompartmental pharmacokinetic parameters (Cmax, Tmax, AUC, Racc) in QD and BID cohorts of Form B
Format: in vivo, human
MEASUREMENT CONDITIONS: human, plasma, oral, 650 mg, Compound III; 650 mg QD of Form B; Cohort 5; Day 29; read-out: Cmax (Median)
REPORTED PROPERTY: Cmax

Data request: # query: Cmax of entry O=C1NCC2(CCCCC2)n2c1cc1cnc(Nc3ccc(N4CCNCC4)cn3)nc12
Data returned: 8.7 ng/mL

---

ASSAY INFO: Noncompartmental pharmacokinetic parameters (Cmax, Tmax, AUC, Racc) in QD and BID cohorts of Form B
Type: in vivo, human
MEASUREMENT CONDITIONS: human, plasma, oral, 200 mg, Compound III; 200 mg QD of Form B; Cohort 1; Day 29; read-out: Cmax (Mean)
Procedure: Analysis of plasma concentration versus time data for calculation of standard pharmacokinetic (PK) parameters following oral administration was conducted using Phoenix WinNonlin version 6.3 using actual blood sampling times. […]
REPORTED PROPERTY: Cmax (ng/mL)
Answers are plain numbers, in ng/mL.

Data request: Find the recorded Cmax belonging to O=C1NCC2(CCCCC2)n2c1cc1cnc(Nc3ccc(N4CCNCC4)cn3)nc12 [Compound III] and report it.
Data returned: 3.14

---

ASSAY INFO: Noncompartmental pharmacokinetic parameters (Cmax, Tmax, AUC, Racc) in QD and BID cohorts of Form B
Type: in vivo, human
MEASUREMENT CONDITIONS: human, plasma, oral, 100 mg, Compound III; 100 mg BID of Form B; Cohort 6; Day 1; read-out: AUClast (Median)
REPORTED PROPERTY: AUC(0-t)

Data request: Which AUC(0-t) is listed for O=C1NCC2(CCCCC2)n2c1cc1cnc(Nc3ccc(N4CCNCC4)cn3)nc12 ?
Data returned: 5.18 ng·h/mL

---

ASSAY INFO: Noncompartmental pharmacokinetic parameters (Cmax, Tmax, AUC, Racc) in QD and BID cohorts of Form B
Type: in vivo, human
MEASUREMENT CONDITIONS: human, plasma, oral, 650 mg, Compound III; 650 mg QD of Form B; Cohort 5; Day 1; read-out: Cmax (Mean)
REPORTED PROPERTY: Cmax (ng/mL)
One number for each entry, in ng/mL.

Data request: Any idea what Cmax was measured for O=C1NCC2(CCCCC2)n2c1cc1cnc(Nc3ccc(N4CCNCC4)cn3)nc12 [Compound III] ?
Data returned: 10.9

---

ASSAY INFO: Noncompartmental pharmacokinetic parameters (Cmax, Tmax, AUC, Racc) in QD and BID cohorts of Form B
Format: in vivo, human
MEASUREMENT CONDITIONS: human, plasma, oral, 650 mg, Compound I; 650 mg QD of Form B; Cohort 5; Day 29; read-out: Cmax (Mean)
REPORTED PROPERTY: Cmax (ng/mL)
One number for each entry, in ng/mL.

Data request: For the compound shown here, CC(C)N1CCN(c2ccc(Nc3ncc4cc5n(c4n3)C3(CCCCC3)CNC5=O)nc2)CC1 , give the reported Cmax.
Data returned: 43.2
